These data points were gathered from patent US20050255041A1.

# test details: Live/Dead cytotoxicity assay, hybridoma supernatant
# Assay type: cell-based
# study conditions: human, hybridoma supernatant (or cycloheximide positive control), calcein, read-out: Cytotoxicity (%) MDA-MB-231 Average
recorded endpoint: cytotoxicity at 5 days (%)
Just the number please, in %, no unit attached.

Input line: Returns the measured cytotoxicity at 5 days for the input compound. Input: C[C@@H]1C[C@@H]([C@H](O)CC2CC(=O)NC(=O)C2)C(=O)[C@@H](C)C1 [Cycloheximide]
Output line: 49

----------
# test details: Live/Dead cytotoxicity assay, hybridoma supernatant
# Assay type: cell-based
# study conditions: human, hybridoma supernatant (or cycloheximide positive control), calcein, read-out: Cytotoxicity (%) MDA-MB-468 Average
recorded endpoint: cytotoxicity at 5 days (%)
Numeric answer only, unit % assumed.

Input line: May I ask what cytotoxicity at 5 days has been recorded for C[C@@H]1C[C@@H]([C@H](O)CC2CC(=O)NC(=O)C2)C(=O)[C@@H](C)C1 [Cycloheximide] ?
Output line: 24
